These data points were gathered from patent US3988450A.

Tested on: Staph. aureus Oxford
Assay readout: MIC (mg/L)
Please reply with the bare figure in mg/L and do not write the unit itself.

The following compounds have reported results that may help.
[[record]]
mol = "O=C(O)C1=C(Cc2ccc(C(=O)O)cc2)CS[C@@H]2[C@H](NC(=O)[C@H](O)c3ccccc3)C(=O)N12"
test_value = 0.25

[[record]]
mol = "CN(N=Cc1ccccc1)C(=O)N[C@@H](C(=O)N[C@@H]1C(=O)N2C(C(=O)O)=C(Cc3ccc(C(=O)O)cc3)CS[C@H]12)c1ccccc1"
test_value = 1.25


**Q:** Reported MIC for CN(N=Cc1ccccc1)C(=O)N[C@@H](C(=O)N[C@@H]1C(=O)N2C(C(=O)O)=C(Cc3ccccc3C(=O)O)CS[C@H]12)c1ccccc1 : what is it?
**A:** 8
